Target or system: IL-2 receptor βγ complex (CD122/CD132) on HEK-Blue IL-2Rβγ reporter cells (UniProt P14784)
Sequence (P14784 27-551 limits assumed, chain 1 of 2): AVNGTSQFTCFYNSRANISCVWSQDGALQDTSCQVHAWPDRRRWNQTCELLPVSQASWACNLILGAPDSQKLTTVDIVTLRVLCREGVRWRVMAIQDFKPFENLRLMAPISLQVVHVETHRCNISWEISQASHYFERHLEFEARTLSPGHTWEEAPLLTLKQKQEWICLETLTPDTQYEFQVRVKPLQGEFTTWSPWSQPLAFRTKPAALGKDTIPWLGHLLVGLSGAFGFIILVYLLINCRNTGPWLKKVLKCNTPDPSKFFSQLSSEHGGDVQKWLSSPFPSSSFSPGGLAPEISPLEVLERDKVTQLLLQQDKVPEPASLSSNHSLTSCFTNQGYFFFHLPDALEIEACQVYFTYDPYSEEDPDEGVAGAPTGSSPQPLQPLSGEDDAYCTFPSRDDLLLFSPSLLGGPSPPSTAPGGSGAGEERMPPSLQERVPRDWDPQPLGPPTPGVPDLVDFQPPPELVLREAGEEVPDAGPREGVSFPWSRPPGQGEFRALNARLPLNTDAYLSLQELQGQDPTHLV
Sequence (P31785 23-369 limits assumed, chain 2 of 2, further chain): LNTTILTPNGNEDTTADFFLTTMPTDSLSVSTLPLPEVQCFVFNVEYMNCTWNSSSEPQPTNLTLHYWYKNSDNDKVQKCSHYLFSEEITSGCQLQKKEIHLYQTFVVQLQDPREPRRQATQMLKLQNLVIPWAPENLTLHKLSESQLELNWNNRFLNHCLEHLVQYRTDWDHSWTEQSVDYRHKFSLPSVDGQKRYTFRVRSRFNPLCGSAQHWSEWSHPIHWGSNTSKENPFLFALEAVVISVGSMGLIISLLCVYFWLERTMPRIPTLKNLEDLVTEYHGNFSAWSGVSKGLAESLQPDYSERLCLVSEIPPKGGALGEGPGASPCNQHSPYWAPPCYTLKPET
Assay comment: cell-based or functional assay
Bridges are numbered along the chain shown (N, C = ends). Primed or numbered codes have the meaning given here. [ ]: non-standard residue; d: D form. Yn3(5) = tyrosine residue modified with an azide-capped PEG9 group (O-(PEG9-azido)-tyrosine); Ygp(5) = O-(8x polyethylene glycol-amino)-tyrosine (Tyr-PEG8-amine); Ygp = O-(8x polyethylene glycol-amino)-tyrosine; Yn3 = O-(9x polyethylene glycol-azido)-tyrosine; 4x polyethylene glycol = not defined here; hSer = N[C@@H](CCO)C(=O)O; Nle = CCCC[C@H](N)C(=O)O
Would you kindly list Average EC50, HEK-Blue IL-2R (CD122+, CD132+) reporter assay for each of these binders?
Answer format: numeric, nM implied, no suffix.

Per the record, CMP-152 (ligand, linker N-38 via 1,5‑pentanedioic acid‑9x polyethylene glycol linker) PLGLAGAPTSSSTKKTQLQLEHLLLDLQ[Nle]ILNGINNYKNPKLTR[Nle]L[hSer][Yn3]KF[Ygp][Nle]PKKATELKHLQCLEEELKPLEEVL[hSer]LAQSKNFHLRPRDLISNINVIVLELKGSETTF[hSer]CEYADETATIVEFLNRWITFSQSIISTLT has Average EC50, HEK-Blue IL-2R (CD122+, CD132+) reporter assay of 0.0597

Per the record, CMP-320 (ligand, lactam N-34) SGRVAPQPLVDAPTSSSTKKTQLQLEHLLLDLQEILNGINNYKNPKLTR[Nle]L[hSer][Yn3(5)]KF[Ygp(5)][Nle]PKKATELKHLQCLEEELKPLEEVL[hSer]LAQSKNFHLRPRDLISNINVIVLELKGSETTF[hSer]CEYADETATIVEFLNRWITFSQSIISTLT has Average EC50, HEK-Blue IL-2R (CD122+, CD132+) reporter assay of 0.775

Per the record, CMP-318, Matriptase cleaved molecule (ligand, lactam N-32; also: treated with matriptase, cleavage site not given here) SGRVANLVGAPTSSSTKKTQLQLEHLLLDLQEILNGINNYKNPKLTR[Nle]L[hSer][Yn3(5)]KF[Ygp(5)][Nle]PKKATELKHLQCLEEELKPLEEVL[hSer]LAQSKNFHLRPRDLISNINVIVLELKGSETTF[hSer]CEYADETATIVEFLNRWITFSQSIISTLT has Average EC50, HEK-Blue IL-2R (CD122+, CD132+) reporter assay of 2.47

Per the record, CMP-159 (ligand, linker N-28 via 4x polyethylene glycol; reading uncertain) PLGLAGAPTSSSTKKTQLQLEHLLLDLE[Nle]ILNGINNYKNPKLTR[Nle]L[hSer][Yn3]KF[Ygp][Nle]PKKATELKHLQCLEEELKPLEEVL[hSer]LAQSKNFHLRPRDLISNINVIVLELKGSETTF[hSer]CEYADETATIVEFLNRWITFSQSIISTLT has Average EC50, HEK-Blue IL-2R (CD122+, CD132+) reporter assay of 0.192
